Each record here notes measured growth inhibition.
Test: inhibition of 3D7 malaria parasite growth – strain 3D7 (AID 2306);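 also: 0% = DMSO wells and 100% = chloroquine plus artemisinin control wells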
Details: P. falciparum 3D7 erythrocytic growth, LDH absorbance, 72 h; at 2 µM; active compounds read high
metric: growth inhibition (%)

>>> df
                                    compound             metric  numeric_value
 0  CN(C)CCN(C)Cc1ccc(-c2ccc3c(Nc4ccc(Oc5ccccc5)cc4)ccnc3c2)o1  growth inhibition            100
 1  O=C(Nc1ccccc1)Nc1cccc(-c2ccc(-c3nc4ccc(C(F)(F)F)cc4[nH]3)cc2)c1  growth inhibition            101
 2  CC(C)c1sc(-c2ccc(C(C)(C)C)cc2)nc1C(=O)NCCCN1CCCC1=O  growth inhibition             96
 3        Oc1cc(Nc2ccnc3cc(I)ccc23)c(F)cc1Cl  growth inhibition             92
 4  CCN(CC)CCCNc1nccc(N(C)c2ccc(NC(=O)Nc3cc(C(F)(F)F)ccc3F)cc2)n1  growth inhibition             94
 5   CN(C)S(=O)(=O)n1ncc2c3c(N)nc(N)nc3ccc21  growth inhibition             96
 6                    CCNC(=O)CCc1cccc(Br)c1  growth inhibition             89
 7  OC1(c2ccc(Br)cc2)CCN(C2CCN(Cc3ccccc3)CC2)CC1  growth inhibition            100
 8  c1ccc2c3c([nH]c2c1)C(c1ccc2c(c1)CCO2)N(c1ncnc(N2CCN(CCCN4CCOCC4)CC2)n1)CC3 (centres undefined)  growth inhibition             80
 9  COc1cccc(C2CCN(CCCCNC(=O)c3ccc(NC(=O)c4ccc(Cl)cc4)cc3)CC2)c1  growth inhibition             99
10  O=c1[nH]ccc2nc(N[C@@H]3CCNC3)nc(Nc3ccc4c(c3)S(=O)(=O)CC4)c12  growth inhibition            100
11  CC(C)(C)c1ccc2nc(-c3ccc(C(=O)NCc4cccc(C(F)(F)F)c4)cc3)[nH]c2c1  growth inhibition             98
12  O=C(NCCCCN1CCC(c2ccc3c(c2OCCCO)CCCC3)CC1)c1ccc(-c2ccc(C(F)(F)F)cc2)c(CO)c1  growth inhibition             95
13  Nc1nc2ccc(CNc3ccc(C(=O)N[C@@H](CCC(=O)O)C(=O)O)cc3)cc2c(=O)[nH]1  growth inhibition             96
14  O=c1cc(NCC2(CNCc3cn(Cc4ccccc4)c4ccccc34)CCCCC2)[nH]c2ccccc12  growth inhibition            100
15  CCCCCCCCCC(=O)NCC1CC(Br)=NO1 (centres undefined)  growth inhibition             87
16   Fc1cccc(C=NNc2ccnc3ccc(C(F)(F)F)cc23)c1  growth inhibition            100
17  CN(C)CCCn1cncc1-c1ccc2ncnc(Nc3ccc4c(cnn4Cc4ccccc4)c3)c2c1  growth inhibition            101
18  COc1cccc2cc(C(=O)N[C@@H](CC(C)C)C(=O)N[C@H](/C=N/NC(=O)OC(C)(C)C)CC(C)C)oc12  growth inhibition             88
19  CC(C)CCNCC(O)Cn1c2ccc(Cl)cc2c2cc(Cl)ccc21 (centres undefined)  growth inhibition             99
20  COc1ccc2ncc(F)c(CCN3CCC(NCc4ccc5c(c4)CCO5)CC3)c2n1  growth inhibition            100
21  CCNc1cc(C(=O)N[C@@H](Cc2ccccc2)[C@H](O)CNC(C)CCCC(C)C)cc(N2CCCS2(=O)=O)c1 (some centres undefined)  growth inhibition             99
22  Cc1cccc2[nH]c(-c3ccc(-c4cccc(NC(=O)c5cncn5C)c4)cc3)nc12  growth inhibition            100
23  OC1CCC(Nc2ccc3ncc(-c4ccc(Cl)cc4)n3n2)CC1 (centres undefined)  growth inhibition             97
24  O=C(Nc1nccs1)c1cc(-c2cccnc2)nc2ccc(Br)cc12  growth inhibition            100
25  Cc1cccc2[nH]c(-c3ccc(-c4cccc(CN5CCN(CC6CCCN(C)C6)CC5)c4)s3)nc12 (centres undefined)  growth inhibition            100
26           CCCCCCn1ccc2c3c(N)nc(N)nc3ccc21  growth inhibition             99
27  CS(=O)(=O)Cc1ccc(Nc2nccc(-c3c(-c4cccc(NC(=O)C5CCCCC5)c4)nn4ncccc34)n2)cc1  growth inhibition             98
28  O=C(Nc1ccc(-c2nc3ccc(NC(=O)c4ccc(Br)cc4)cc3[nH]2)cc1)c1ccc(Br)cc1  growth inhibition             98
29  CCc1ccc(C2CCN(CCCCNC(=O)c3ccc(-c4ccc(C#N)cc4)cc3)CC2)c(OCCO)c1  growth inhibition             94
30  CCS(=O)(=O)c1ccc(/C(=N/OC)c2ccc[nH]2)cc1  growth inhibition             85
31  CC(=O)N1N=C(c2[nH]c3ccc(Br)cc3c2C)OC1c1ccccc1 (centres undefined)  growth inhibition             86
32   Brc1ccc(Nc2nc(NCc3ccccc3)c3ccccc3n2)cc1  growth inhibition            101
33  O=C(NCCN1CCCC1)c1cccc(Nc2nccc(Nc3ccc(Oc4ccccc4)cc3)n2)c1  growth inhibition            100
34   CCCCCCCCOc1ccc(N2C(N)=NC(N)=NC2(C)C)cc1  growth inhibition            100
35  COc1ccc2nccc([C@@H](O)CN3CCC(NCc4cc5ccccc5o4)CC3)c2c1  growth inhibition             96
36  COc1cc(C(C)C)nc2ccc(NC(=O)c3ccc(C(=O)Nc4ccc5nc(C(C)C)cc(OC)c5c4)cc3)cc12  growth inhibition             95
37  Cc1oc(-c2ccc(Cl)cc2)cc1C(=O)NCCC1CCN(CCCCCNC(=O)/C=C/c2ccc(Cl)c(Cl)c2)CC1  growth inhibition            100
38  CCCN1CCN(CCNC(=O)c2cccc(Nc3nccc(Nc4ccc(Oc5ccccc5)cc4)n3)c2)CC1  growth inhibition             99
